Numbers sourced from patent US20260109776A1.

// reported Ligand Binding Inhibition (%) per item
- SYSTEM: T1, human CD40 on cells (human, UniProt P25942 21-277)
- T1 construct: also called CD40 receptor on human B cells
- T1 sequence (P25942 21-277 limits assumed): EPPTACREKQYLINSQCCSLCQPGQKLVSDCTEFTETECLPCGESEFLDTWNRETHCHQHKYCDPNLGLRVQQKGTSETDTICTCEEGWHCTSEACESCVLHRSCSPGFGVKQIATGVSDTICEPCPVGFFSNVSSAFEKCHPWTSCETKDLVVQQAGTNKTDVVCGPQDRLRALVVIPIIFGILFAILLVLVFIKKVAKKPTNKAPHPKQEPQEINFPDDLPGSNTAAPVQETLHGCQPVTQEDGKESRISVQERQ
- TEST: flow cytometry, labelled CD40L on CD40-293T cells, antibody at 5 ug/ml
Unit % implied. Number only.

- BINDER: "33H6 (antibody, IgG4, V domains shown, also called 4883-1) VH: QVQLVQSGAEVKKPGASVKVSCKASGYTFPGYYMYWLRQAPGQGLEWMGWINPDSGDTNYAQKFQGRVTMTRDTSISTAFMELSRLRSDDTAVYYCAREKPRYFDSFYYYLMDVWGQGTTVTVSS VL: DIQMTQSPSSLSASVGDRVTITCRAGQNISRHLNWYQQNPGKAPKVLIHPASSLPSGVPSRFSGSGSGTDFSLTISSLQPEDFGTYFCQQSYSTPPTFGGGTKVELKR"
  Ligand Binding Inhibition (%): 4
- BINDER: "36F3 (antibody, IgG4, V domains shown, also called 4891-1) VH: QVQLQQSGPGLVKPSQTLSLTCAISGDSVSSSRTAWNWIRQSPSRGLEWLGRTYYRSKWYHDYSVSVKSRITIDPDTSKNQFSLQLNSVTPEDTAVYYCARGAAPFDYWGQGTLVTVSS VL: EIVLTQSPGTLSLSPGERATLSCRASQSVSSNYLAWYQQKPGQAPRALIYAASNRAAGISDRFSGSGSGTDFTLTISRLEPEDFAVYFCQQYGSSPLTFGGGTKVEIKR"
  Ligand Binding Inhibition (%): 10

Consider the additional binder presented here.
The recorded Ligand Binding Inhibition (%) for entry 37A6 (antibody, IgG4, V domains shown, also called 4865-1) VH: QVQLVESGGGLVKPGGSLRLSCAASEFTFSDYYMSWIRQAPGKGLEWVSYISRSGDTIYYADSVKGRFTISRDNAKNSLYLQMNGLRAEDTAVYYCARDLAAGATGGLDCWGQGTLVTVSS VL: SYELTQPPSVSVSPGQTASITCSGERLGNKYICWYQQKPGQSPVLVIYQDFKRPSGIPERFSGSNSGITATLTISGTQAMDEADYYCQAWDSRTVVFGGGTKLTVLG equals 2
